assayed_target: recombinant human MMP-1 (Homo sapiens, UniProt P03956)
Sequence (P03956 100-469): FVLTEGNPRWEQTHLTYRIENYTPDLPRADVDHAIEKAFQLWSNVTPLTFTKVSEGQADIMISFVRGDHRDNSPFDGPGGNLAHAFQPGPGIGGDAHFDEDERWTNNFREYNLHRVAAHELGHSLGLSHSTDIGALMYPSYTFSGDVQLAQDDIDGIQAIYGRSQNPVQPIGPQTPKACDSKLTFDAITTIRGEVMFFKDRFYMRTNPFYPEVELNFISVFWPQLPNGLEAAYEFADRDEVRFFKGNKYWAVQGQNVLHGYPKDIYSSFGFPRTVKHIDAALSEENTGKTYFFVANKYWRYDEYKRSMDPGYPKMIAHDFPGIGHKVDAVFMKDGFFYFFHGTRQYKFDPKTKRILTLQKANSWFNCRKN
method_description: In vitro metalloprotease inhibition, fluorogenic peptide assay (MMP-1)
measurement_conditions: recombinant human MMP-1, APMA activated; fluorogenic MCA peptide substrate 4 uM; pH 7.5, room temperature
pIC50: −log10 of the molar value.

compound	qualifying_sign	pIC50
CCCCOc1ccc(S(=O)(=O)N(C)[C@H](C)CSSC[C@@H](C)N(C)S(=O)(=O)c2ccc(OCCCC)cc2)cc1 [Example 18]	<	5.00
C[C@H](CS)N(CCN1CCCCC1)S(=O)(=O)CCCSc1ccccc1 [Example 52]	<	5.00
CCCCOc1ccc(S(=O)(=O)N(C)[C@H](C)CS)cc1 [Example 22C]	=	5.47
COC(=O)[C@H](CSSC[C@H](NS(=O)(=O)c1ccc(OC)cc1)C(=O)OC)NS(=O)(=O)c1ccc(OC)cc1 [Example 58]	=	5.22
NC(=O)[C@H](CSSC[C@@H](C(N)=O)N(CCN1CCOCC1)S(=O)(=O)c1ccc(Oc2ccccc2)cc1)N(CCN1CCOCC1)S(=O)(=O)c1ccc(Oc2ccccc2)cc1 [Example 213]	<	5.00
C[C@H](CO)N(C)S(=O)(=O)c1ccc(-c2ccccn2)s1 [Example 42D]	<	5.00
NC(=O)[C@H](CS)N(CCN1CCOCC1)S(=O)(=O)c1ccc(NC(=O)c2ccc(Cl)cc2)cc1 [Example 220]	=	5.15
CCCCCN([C@H](C)CS)S(=O)(=O)c1ccc(OCCCC)cc1 [Example 48C]	<	5.00
COc1ccc(S(=O)(=O)N[C@H](C)CS)cc1 [Example 16B]	=	5.15
CCCCOc1ccc(S(=O)(=O)N(CCN2CCOCC2)[C@H](C)CS)cc1 [Example 45C]	=	5.49

----------
Measured IC50 accompanies every entry in the list below.
assayed_target: recombinant human MMP-13 (Homo sapiens)
Construct: made in house
method_description: In vitro metalloprotease inhibition, fluorogenic peptide assay (MMP-13)
Assay type: biochemical
measurement_conditions: recombinant human MMP-13, APMA activated; fluorogenic MCA peptide substrate 4 uM; pH 7.5, room temperature
readout_type: IC50

compound	assay_value
COc1ccc(S(=O)(=O)N(CCS)Cc2ccccc2)cc1	300 nM
CCCCOc1ccc(S(=O)(=O)N(Cc2ccccc2)[C@H](C)CS)cc1 [Example 17C]	260 nM
C[C@H](CS)NS(=O)(=O)c1ccc(OCC(F)(F)F)cc1OCC(F)(F)F	> 10000 nM
C[C@H](CS)NS(=O)(=O)c1cc(C(F)(F)F)n(C)n1	> 10000 nM
COc1ccc(S(=O)(=O)N[C@H](C)CS)cc1 [Example 16B]	245 nM

The measurements presented in this section are drawn from patent US6747027B1.
